Test system: OVCAR8
Test: drug sensitivity score (DSS2) on cancer cell count; higher = more sensitive; extreme values may be limits of the assay
Details: co-cultured fibroblast: WI38; 72 h
Listed next: entries and their corresponding drug sensitivity score.
PROPERTY: drug sensitivity score (DSS)

>>> measured_value("CC1(C)CCC(c2ccc(Cl)cc2)=C(CN2CCN(c3ccc(C(=O)NS(=O)(=O)c4ccc(N[C@H](CCN5CCOCC5)CSc5ccccc5)c(S(=O)(=O)C(F)(F)F)c4)cc3)CC2)C1")
0
>>> measured_value("C[C@@H](Oc1cc(-c2cnn(C3CCNCC3)c2)cnc1N)c1c(Cl)ccc(F)c1Cl")
0
>>> measured_value("C[C@@H]1COCCN1c1cc(C2([S@](C)(=N)=O)CC2)nc(-c2cc[nH]c3nccc2-3)n1")
4.4

* * *

Listed next: entries and their corresponding drug sensitivity score.
System: KURAMOCHI
Assay: drug sensitivity score (DSS2) on cancer cell count; higher = more sensitive; extreme values may be limits of the assay
Details: co-cultured fibroblast: BJHTERT; 72 h
PROPERTY: drug sensitivity score

>>> measured_value("CC1=C2C[C@H]3[C@@H](CC[C@@H]4C[C@H](NS(C)(=O)=O)CC[C@@]43C)[C@@H]2CC[C@@]2(C1)O[C@@H]1C[C@H](C)CN[C@H]1[C@H]2C")
"3.1 DSS"
>>> measured_value("COc1cc2c(Nc3ccc(Cl)c(Cl)c3F)ncnc2cc1OC[C@@H]1C[C@@H]2CN(C)C[C@@H]2C1")
"5 DSS"
>>> measured_value("Nc1nc(F)nc2c1ncn2[C@@H]1O[C@H](CO)[C@@H](O)[C@@H]1O")
"0.3 DSS"
>>> measured_value("Cn1ncnc1[C@H]1c2n[nH]c(=O)c3cc(F)cc(c23)N[C@@H]1c1ccc(F)cc1")
"10.5 DSS"
>>> measured_value("Cn1cc(-c2cnn3c(N)c(Br)c([C@@H]4CCCNC4)nc23)cn1")
"1.2 DSS"
>>> measured_value("CC(C)(C)c1nc(-c2cccc(NS(=O)(=O)c3c(F)cccc3F)c2F)c(-c2ccnc(N)n2)s1")
"0 DSS"
>>> measured_value("CC(C)n1cnc2c(NCCc3ccc(O)cc3)nc(-c3csc4ccccc34)nc21")
"4.3 DSS"
>>> measured_value("COc1cc2ncnc(Nc3cccc(Cl)c3F)c2cc1OC(=O)N1CCN(C)C[C@H]1C")
"1.1 DSS"
>>> measured_value("CCCCCCCCCCCCCCCCOP(=O)([O-])OCC[N+](C)(C)C")
"4.4 DSS"
>>> measured_value("CCC(C)(C)C(=O)O[C@H]1C[C@@H](C)C=C2C=C[C@H](C)[C@H](CC[C@@H]3C[C@@H](O)CC(=O)O3)[C@H]21")
"0.4 DSS"
>>> measured_value("CCCCC(=O)OCC(=O)[C@]1(O)Cc2c(O)c3c(c(O)c2[C@@H](O[C@H]2C[C@H](NC(=O)C(F)(F)F)[C@H](O)[C@H](C)O2)C1)C(=O)c1c(OC)cccc1C3=O")
"19.7 DSS"
>>> measured_value("Cc1nc(Nc2ncc(C(=O)Nc3c(C)cccc3Cl)s2)cc(N2CCN(CCO)CC2)n1")
"18.4 DSS"
>>> measured_value("CC1(C)C(C(=O)Nc2ccc(S(=O)(=O)c3ccc(NC(=O)C4C(C)(C)C4(C)C)cc3)cc2)C1(C)C")
"0.5 DSS"
>>> measured_value("O=C(NCc1ccncc1)C12CC3CC(C1)CC(c1ccc(Cl)cc1)(C3)C2")
"5.8 DSS"
>>> measured_value("Cc1cnc(-c2ccccc2C(C)C)nc1NCc1ccc(-n2ccnn2)cc1")
"0 DSS"

* * *

Listed next: entries and their corresponding drug sensitivity score.
Test system: KURAMOCHI
Test: drug sensitivity score (DSS2) on cancer cell count; higher = more sensitive; extreme values may be limits of the assay
Conditions: co-cultured fibroblast: BJHTERT; 72 h
PROPERTY: drug sensitivity score

>>> measured_value("O=C(c1cccc(Cl)c1F)N1CCN(Cc2cccc(Nc3nccs3)n2)CC1")
"11.8 DSS"
>>> measured_value("CN1CCN(c2ccc(C(=O)Nc3n[nH]c4ccc(Cc5cc(F)cc(F)c5)cc34)c(NC3CCOCC3)c2)CC1")
"2.1 DSS"
>>> measured_value("CON(C)C(=O)N1N=C(c2cc(F)ccc2F)S[C@@]1(CCCN)c1ccccc1")
"21.4 DSS"
>>> measured_value("CC(C)N(C[C@H]1O[C@@H](n2cnc3c(N)ncnc32)[C@H](O)[C@@H]1O)[C@H]1C[C@@H](CCc2nc3cc(C(C)(C)C)ccc3[nH]2)C1")
"0 DSS"
>>> measured_value("Cc1noc2c1-c1ccccc1C(c1ccc(Cl)cc1)=N[C@H]2CC(N)=O")
"0 DSS"
>>> measured_value("O=C(CCCCCCNC(=O)c1cnc(N(c2ccccc2)c2ccccc2)nc1)NO")
"6.7 DSS"
>>> measured_value("CC(C)Oc1ccc(-c2nn([C@@H](C)c3oc4ccc(F)cc4c(=O)c3-c3cccc(F)c3)c3ncnc(N)c23)cc1F")
"0 DSS"

* * *

System: KURAMOCHI
Experiment: drug sensitivity score (DSS2) on cancer cell count; higher = more sensitive; extreme values may be limits of the assay
Conditions: co-cultured fibroblast: WI38; 72 h
Listed next: entries and their corresponding drug sensitivity score.
PROPERTY: drug sensitivity score (DSS)

>>> measured_value("CC(C)Oc1ccc(-c2nn([C@@H](C)c3oc4ccc(F)cc4c(=O)c3-c3cccc(F)c3)c3ncnc(N)c23)cc1F [TGR-1202]")
0
>>> measured_value("CCS(=O)(=O)N1CCN(c2ccc(Nc3ncc(C(N)=O)c(NC4CC4)n3)cc2)CC1 [Cerdulatinib]")
4.3
>>> measured_value("CC(=O)O[C@@]12CO[C@@H]1C[C@H](O)[C@@]1(C)C(=O)[C@H](O)C3=C(C)[C@@H](OC(=O)[C@H](O)[C@@H](NC(=O)OC(C)(C)C)c4ccccc4)C[C@@](O)([C@@H](OC(=O)c4ccccc4)[C@H]21)C3(C)C [Docetaxel]")
26.2

* * *

Test system: OVCAR8
Experiment: drug sensitivity score (DSS2) on cancer cell count; higher = more sensitive; extreme values may be limits of the assay
Conditions: co-cultured fibroblast: BJHTERT; 72 h
PROPERTY: drug sensitivity score (DSS)

>>> measured_value("CNS(=O)(=O)Nc1nccc(Cc2c(C)c3ccc(Oc4ncccn4)cc3oc2=O)c1F")
0
>>> measured_value("Cc1cn(-c2cc(NC(=O)c3ccc(C)c(Nc4nccc(-c5cccnc5)n4)c3)cc(C(F)(F)F)c2)cn1")
0
>>> measured_value("CCC(C)(C)C(=O)O[C@H]1C[C@@H](C)C=C2C=C[C@H](C)[C@H](CC[C@@H]3C[C@@H](O)CC(=O)O3)[C@H]21")
1.8
>>> measured_value("Cc1cc2c(F)c(Oc3ncnn4cc(OC[C@@H](C)O)c(C)c34)ccc2[nH]1")
0
>>> measured_value("Nc1ncnc2c1nc(Cl)n2[C@@H]1O[C@H](CO)[C@@H](O)[C@H]1O")
12.9
>>> measured_value("C=CCN(/C=C1/C(=O)O[C@H](COC)[C@@]2(C)C1=C(O)C(=O)C1=C2[C@H](OC(C)=O)C[C@]2(C)C(=O)CC[C@@H]12)CC=C")
0
>>> measured_value("CC(C)c1cc(-c2n[nH]c(=O)n2-c2ccc3c(ccn3C)c2)c(O)cc1O")
22.3
>>> measured_value("CC1(COc2ccc3c(c2)ncn3-c2ccc3cccc(N4CCC(N)CC4)c3n2)COC1")
4.7

* * *

Test system: KURAMOCHI
Assay: drug sensitivity score (DSS2) on cancer cell count; higher = more sensitive; extreme values may be limits of the assay
Settings: co-cultured fibroblast: BJHTERT; 72 h
PROPERTY: drug sensitivity score (DSS)

>>> measured_value("FC(F)(F)c1ccc(CNc2ccc(Cc3c[nH]c4ncc(Cl)cc34)cn2)cn1")
0
>>> measured_value("CC(C)C[C@H](NC(=O)[C@@H](COC(C)(C)C)NC(=O)[C@H](Cc1ccc(O)cc1)NC(=O)[C@H](CO)NC(=O)[C@H](Cc1c[nH]c2ccccc12)NC(=O)[C@H](Cc1cnc[nH]1)NC(=O)[C@@H]1CCC(=O)N1)C(=O)N[C@@H](CCCNC(=N)N)C(=O)N1CCC[C@H]1C(=O)NNC(N)=O")
0
>>> measured_value("Cc1cc(OCc2nnc(SC3CCCC3)n2-c2cccnc2)ccc1-c1ccc(S(C)(=O)=O)cc1")
9
>>> measured_value("C[C@]12CC[C@@H]3c4ccc(O)cc4C[C@@H](CCCCCCCCC[S+]([O-])CCCC(F)(F)C(F)(F)F)[C@H]3[C@@H]1CC[C@@H]2O (some centres undefined)")
0

* * *

Test system: OVCAR8
Test: drug sensitivity score (DSS2) on cancer cell count; higher = more sensitive; extreme values may be limits of the assay
Details: co-cultured fibroblast: WI38; 72 h
Listed next: entries and their corresponding drug sensitivity score.
PROPERTY: drug sensitivity score

>>> measured_value("O=C(NC1CCNCC1)c1n[nH]cc1NC(=O)c1c(Cl)cccc1Cl [AT7519]")
"17.5 DSS"
>>> measured_value("CNC(=O)c1cccc(-c2ccc3c(N4CCOC[C@@H]4C)nc(N4CCOC[C@@H]4C)nc3n2)c1 [Vistusertib]")
"7.6 DSS"
>>> measured_value("CNC(=O)c1ccccc1Nc1cc(Nc2ccc(N3CCOCC3)cc2OC)ncc1C(F)(F)F [VS-4718]")
"3.5 DSS"
>>> measured_value("O=C(c1ccc(C(=O)N2CCC(N3CCCC3)CC2)c(Nc2ccccc2)c1)N1CCC(N2CCCC2)CC1 [UNC1215]")
"0 DSS"
>>> measured_value("CC[C@@H]1C(=O)OC[C@@H]1Cc1cncn1C [Pilocarpine]")
"19.4 DSS"
>>> measured_value("CCNC(=O)CCC/C=C\\C[C@@H]1[C@@H](/C=C/[C@@H](O)CCc2ccccc2)[C@H](O)C[C@@H]1O [Bimatoprost]")
"0 DSS"
>>> measured_value("Cc1ncc(-c2ccnc(Nc3ccc(S(C)(=O)=O)cc3)n2)n1C(C)C [AZD-5438]")
"19.2 DSS"
>>> measured_value("CO[C@@]12[C@H](COC(N)=O)C3=C(C(=O)C(C)=C(N)C3=O)N1C[C@@H]1N[C@@H]12 [Mitomycin C]")
"0.8 DSS"
